Reference source for all entries: patent US20230015823A1

Protocol notes: Phase 1 study of a single oral dose of voxelotor in subjects with hepatic impairment: whole blood and plasma PK
Assay type: in vivo, human
Reported conditions: human, plasma, po, 1500 mg, plasma; normal hepatic function; 1500 mg single oral dose; read-out: Cmax, GM (converted)

{"columns": ["Molecule smiles", "Output unit", "Cmax"],
 "data": [
  ["CC(C)n1nccc1-c1ncccc1COc1cccc(O)c1C=O", "ng/mL", 2010]
]}

---

Protocol notes: Phase 1 study of a single oral dose of voxelotor in subjects with hepatic impairment: whole blood and plasma PK
Type: in vivo, human
Reported conditions: human, plasma, oral, 1500 mg, plasma; moderate hepatic impairment (Test); 1500 mg; read-out: AUCt, Geometric LS Mean

{"columns": ["Compound", "AUC(0-t), µg·h/mL"],
 "data": [
  ["CC(C)n1nccc1-c1ncccc1COc1cccc(O)c1C=O [voxelotor]", 245]
]}

---

Protocol notes: Phase 1 study of a single oral dose of voxelotor in subjects with hepatic impairment: whole blood and plasma PK
Type: in vivo, human
Reported conditions: human, plasma, po, 1500 mg, plasma; normal hepatic function; 1500 mg single oral dose; read-out: tmax, median (converted)

{"columns": ["Molecule smiles", "Output unit", "Tmax"],
 "data": [
  ["CC(C)n1nccc1-c1ncccc1COc1cccc(O)c1C=O", "h", 4]
]}

---

Protocol notes: Phase 1 study of a single oral dose of voxelotor in subjects with hepatic impairment: whole blood and plasma PK
Assay type: in vivo, human
Reported conditions: human, whole blood, po, 1500 mg, whole blood; moderate hepatic impairment; 1500 mg single oral dose; read-out: AUCinf, GM (converted)
Property measured: AUC(0-inf) (µg·h/mL)

{"columns": ["Compound", "Data value"],
 "data": [
  ["CC(C)n1nccc1-c1ncccc1COc1cccc(O)c1C=O [voxelotor]", 8360]
]}

---

Protocol notes: Clinical pharmacokinetics of voxelotor in plasma, whole blood and RBCs
Type: in vivo, human
Reported conditions: human, plasma, oral; read-out: apparent volume of distribution of the central compartment
Property measured: Vd (L)

{"columns": ["Compound", "Data value"],
 "data": [
  ["CC(C)n1nccc1-c1ncccc1COc1cccc(O)c1C=O [voxelotor]", 338]
]}

---

Protocol notes: Phase 1 study of a single oral dose of voxelotor in subjects with hepatic impairment: whole blood and plasma PK
Format: in vivo, human
Reported conditions: human, whole blood, po, 1500 mg, whole blood; moderate hepatic impairment; 1500 mg single oral dose; read-out: Cmax, GM (converted)

{"columns": ["Molecule smiles", "Output unit", "Cmax"],
 "data": [
  ["CC(C)n1nccc1-c1ncccc1COc1cccc(O)c1C=O", "µg/mL", 63.8]
]}

---

Protocol notes: Phase 1 study of a single oral dose of voxelotor in subjects with hepatic impairment: whole blood and plasma PK
Assay type: in vivo, human
Reported conditions: human, plasma, po, 600 mg, plasma; severe hepatic impairment; 600 mg single oral dose; read-out: t1/2, mean (converted)

{"columns": ["Molecule smiles", "half-life"],
 "data": [
  ["CC(C)n1nccc1-c1ncccc1COc1cccc(O)c1C=O", "109 h"]
]}

---

Protocol notes: Clinical pharmacokinetics of voxelotor in plasma, whole blood and RBCs
Assay type: in vivo, human
Reported conditions: human; plasma and whole blood; oral administration; read-out: median Tmax
Property measured: Tmax

{"columns": ["Molecule smiles", "Property measured", "Data value"],
 "data": [
  ["CC(C)n1nccc1-c1ncccc1COc1cccc(O)c1C=O", "Tmax", "2 h"]
]}

---

Protocol notes: Phase 1 study of a single oral dose of voxelotor in subjects with hepatic impairment: whole blood and plasma PK
Format: in vivo, human
Reported conditions: human, plasma, po, 1500 mg, plasma; moderate hepatic impairment; 1500 mg single oral dose; read-out: tmax, median (converted)

{"columns": ["Molecule smiles", "Tmax"],
 "data": [
  ["CC(C)n1nccc1-c1ncccc1COc1cccc(O)c1C=O", "5 h"]
]}

---

Protocol notes: Phase 1 study of a single oral dose of voxelotor in subjects with hepatic impairment: whole blood and plasma PK
Type: in vivo, human
Reported conditions: human, plasma, po, 1500 mg, plasma; mild hepatic impairment; 1500 mg single oral dose; read-out: Vz/F, GM (converted)

{"columns": ["Molecule smiles", "Vd/F, L"],
 "data": [
  ["CC(C)n1nccc1-c1ncccc1COc1cccc(O)c1C=O", 674]
]}

---

Protocol notes: Phase 1 study of a single oral dose of voxelotor in subjects with hepatic impairment: whole blood and plasma PK
Assay type: in vivo, human
Reported conditions: human, plasma, po, 1500 mg, plasma; normal hepatic function; 1500 mg single oral dose; read-out: AUCt, GM (converted)

{"columns": ["Molecule smiles", "AUC(0-t) / µg·h/mL"],
 "data": [
  ["CC(C)n1nccc1-c1ncccc1COc1cccc(O)c1C=O", 199]
]}

---

Protocol notes: Phase 1 study of a single oral dose of voxelotor in subjects with hepatic impairment: whole blood and plasma PK
Type: in vivo, human
Reported conditions: human, plasma, oral, 1500 mg, plasma; mild hepatic impairment (Test); 1500 mg; read-out: AUCinf, Geometric LS Mean

{"columns": ["Molecule smiles", "AUC(0-inf) (µg·h/mL)"],
 "data": [
  ["CC(C)n1nccc1-c1ncccc1COc1cccc(O)c1C=O", 223]
]}

---

Protocol notes: Phase 1 study of a single oral dose of voxelotor in subjects with hepatic impairment: whole blood and plasma PK
Format: in vivo, human
Reported conditions: human, plasma, oral, 1500 mg, plasma; normal hepatic function (Reference); 1500 mg; read-out: Cmax, Geometric LS Mean

{"columns": ["Molecule smiles", "Output unit", "Cmax"],
 "data": [
  ["CC(C)n1nccc1-c1ncccc1COc1cccc(O)c1C=O", "ng/mL", 2010]
]}

---

Protocol notes: Phase 1 study of a single oral dose of voxelotor in subjects with hepatic impairment: whole blood and plasma PK
Type: in vivo, human
Reported conditions: human, whole blood, po, 1500 mg, whole blood; moderate hepatic impairment; 1500 mg single oral dose; read-out: AUC0-96, GM (converted)
Property measured: AUC(0-t) (µg·h/mL)

{"columns": ["Molecule", "Data value"],
 "data": [
  ["CC(C)n1nccc1-c1ncccc1COc1cccc(O)c1C=O [voxelotor]", 4660]
]}

---

Protocol notes: Phase 1 study of a single oral dose of voxelotor in subjects with hepatic impairment: whole blood and plasma PK
Assay type: in vivo, human
Reported conditions: human, plasma, po, 1500 mg, plasma; normal hepatic function; 1500 mg single oral dose; read-out: Vz/F, GM (converted)
Property measured: Vd/F (L)

{"columns": ["Compound", "Output unit", "Data value"],
 "data": [
  ["CC(C)n1nccc1-c1ncccc1COc1cccc(O)c1C=O [voxelotor]", "L", 865]
]}

---

Protocol notes: Phase 1 study of a single oral dose of voxelotor in subjects with hepatic impairment: whole blood and plasma PK
Type: in vivo, human
Reported conditions: human, whole blood, oral, 1500 mg, whole blood; moderate hepatic impairment (Test); 1500 mg; read-out: Cmax, Geometric LS Mean
Protocol: A Phase 1, open-label study was performed to characterize pharmacokinetics (PK) and safety of a single oral dose of voxelotor in subjects with hepatic impairment. […] Adverse events and concomitant medication use were monitored throughout the study. […] Whole blood and plasma concentrations of voxelotor were determined using validated assays. […] The following PK parameters were determined. […] The lower limit of assay quantitation for voxelotor was 10.0 ng/mL for whole blood and 5.00 ng/mL in plasma.

{"columns": ["Molecule smiles", "Output unit", "Cmax"],
 "data": [
  ["CC(C)n1nccc1-c1ncccc1COc1cccc(O)c1C=O", "µg/mL", 64.9]
]}

---

Protocol notes: Clinical pharmacokinetics of voxelotor in plasma, whole blood and RBCs
Type: in vivo, human
Reported conditions: human, oral, 1500 mg; whole blood; Voxelotor 1,500 mg; read-out: Cmax, Geometric Mean (% CV)

{"columns": ["Molecule smiles", "Cmax, µg/mL"],
 "data": [
  ["CC(C)n1nccc1-c1ncccc1COc1cccc(O)c1C=O", 179]
]}

---

Protocol notes: Phase 1 study of a single oral dose of voxelotor in subjects with hepatic impairment: whole blood and plasma PK
Type: in vivo, human
Reported conditions: human, whole blood, oral, 1500 mg, whole blood; moderate hepatic impairment (Test); 1500 mg; read-out: AUCt, Geometric LS Mean

{"columns": ["Molecule smiles", "AUC(0-t) [µg·h/mL]"],
 "data": [
  ["CC(C)n1nccc1-c1ncccc1COc1cccc(O)c1C=O", 8190]
]}

---

Protocol notes: Phase 1 study of a single oral dose of voxelotor in subjects with hepatic impairment: whole blood and plasma PK
Type: in vivo, human
Reported conditions: human, whole blood, po, 600 mg, whole blood; severe hepatic impairment; 600 mg single oral dose, adjusted for dose to 1500 mg; read-out: AUCt, GM (converted)

{"columns": ["Molecule smiles", "AUC(0-t), µg·h/mL"],
 "data": [
  ["CC(C)n1nccc1-c1ncccc1COc1cccc(O)c1C=O", 13300]
]}

---

Protocol notes: Phase 1 study of a single oral dose of voxelotor in subjects with hepatic impairment: whole blood and plasma PK
Format: in vivo, human
Reported conditions: human, whole blood, po, 600 mg, whole blood; severe hepatic impairment; 600 mg single oral dose; read-out: Vz/F, GM (converted)

{"columns": ["Molecule smiles", "Output unit", "Vd/F"],
 "data": [
  ["CC(C)n1nccc1-c1ncccc1COc1cccc(O)c1C=O", "L", 17.6]
]}
